# TARGET_SYSTEM: ecdysone receptor (PxGST−EcR) (Plutella xylostella)
# Sequence (G5CV07 285-528): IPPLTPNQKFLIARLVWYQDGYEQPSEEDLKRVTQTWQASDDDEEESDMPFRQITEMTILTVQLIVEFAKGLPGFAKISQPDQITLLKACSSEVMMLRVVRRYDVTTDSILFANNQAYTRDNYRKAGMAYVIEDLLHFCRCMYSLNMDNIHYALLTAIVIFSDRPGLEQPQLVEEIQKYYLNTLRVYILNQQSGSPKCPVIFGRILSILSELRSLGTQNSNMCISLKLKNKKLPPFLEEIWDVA
# Sequence (G5CV12 133-414 partner limits assumed): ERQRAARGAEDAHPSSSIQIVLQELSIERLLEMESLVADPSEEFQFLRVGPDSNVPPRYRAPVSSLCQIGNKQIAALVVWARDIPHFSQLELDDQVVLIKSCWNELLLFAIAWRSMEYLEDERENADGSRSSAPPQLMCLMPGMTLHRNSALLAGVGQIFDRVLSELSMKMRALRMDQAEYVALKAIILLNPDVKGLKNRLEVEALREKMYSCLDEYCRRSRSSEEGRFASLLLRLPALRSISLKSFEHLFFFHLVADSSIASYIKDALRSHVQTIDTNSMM
# ASSAY_EXPLANATION: competitive radioligand binding, displacement of [3H]PonA from purified EcR/USP dimer
MEASUREMENT_KIND: pIC50
Note on pIC50: it is the negative log10 of concentration, concentration in mol/L.

(Q) I am curious: what pIC50 value has been reported for CCc1ccc(C(=O)NN(C(=O)c2cc(C)cc(C)c2)C(C)(C)C)cc1 [tebufenozide] ?
(A) 7.09

----------
# TARGET_SYSTEM: UniProt G5CV07
# Sequence (G5CV07 285-528): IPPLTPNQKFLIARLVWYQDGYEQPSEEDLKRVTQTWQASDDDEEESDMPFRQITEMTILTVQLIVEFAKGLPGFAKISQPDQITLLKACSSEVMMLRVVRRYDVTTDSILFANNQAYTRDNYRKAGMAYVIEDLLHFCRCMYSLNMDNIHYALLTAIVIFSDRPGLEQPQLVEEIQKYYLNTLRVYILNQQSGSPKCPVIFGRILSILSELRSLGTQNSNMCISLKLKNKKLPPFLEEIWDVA
# Sequence (G5CV12 133-414 partner limits assumed): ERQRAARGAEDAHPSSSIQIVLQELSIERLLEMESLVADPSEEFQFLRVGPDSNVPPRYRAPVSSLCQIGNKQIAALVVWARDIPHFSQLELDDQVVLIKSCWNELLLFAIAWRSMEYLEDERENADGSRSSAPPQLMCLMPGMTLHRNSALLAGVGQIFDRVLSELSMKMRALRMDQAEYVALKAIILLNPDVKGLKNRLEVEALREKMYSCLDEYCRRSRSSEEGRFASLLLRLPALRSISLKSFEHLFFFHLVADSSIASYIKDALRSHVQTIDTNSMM
MEASUREMENT_KIND: Kd (nM)
Could you give me the number in nM? Just the number is fine.

(Q) I am curious: what Kd value has been reported for CC(C)CC[C@@H](O)[C@](C)(O)[C@H]1CC[C@@]2(O)C3=CC(=O)[C@@H]4C[C@@H](O)[C@@H](O)C[C@]4(C)[C@H]3CC[C@]12C ?
(A) 2.3
